- Tested on: Hs-578T
- procedure_details: NCI tumour cell line growth inhibition, 48 h
Calls of active or inactive are those of the source. Cut-off read from the data, not from the text of the source: active = GI50 up to about 1.1 µM and inactive = higher.
Could you please pick one outcome from this set? active, inactive

Sample answers from the record:
COc1ccccc1-c1cc(O)c2ccc(C)nc2n1 :: inactive
COc1ccc2[nH]c3c(C)c4ccnc(NCCCN(C)CCCNc5ccc([N+](=O)[O-])c6[nH]c7ccccc7c(=O)c56)c4c(C)c3c2c1 :: active
COc1cc(C2SCC(=O)N2c2cccc(Cl)c2)cc(OC)c1OC (stereo not given) :: inactive
COc1ccc(-n2c(SC(CN3CCOCC3)CN3CCCC3=O)nc3ccccc3c2=O)cc1 (stereo not given) :: inactive
COc1cc(C2c3cc4c(cc3OC(NNc3ccccc3)C2C)OCO4)cc(OC)c1OC (stereo not given) :: inactive
O=C(/C=C/c1ccc([N+](=O)[O-])cc1)N1CCN(CCOC(c2ccc(F)cc2)c2ccc(F)cc2)CC1 :: inactive
C1CCN2CC34CC(CC5CCCN(C6CCCC3N6)C54)C2C1 (stereo not given) :: inactive
CCC1([N+](=O)[O-])CC2C=CC1C2 (stereo not given) :: inactive

Which outcome was entered for the compound "COc1ccc(C(=O)/C=C/c2ccc(Oc3cc(C(=O)/C=C/c4ccc(O)cc4)c(O)cc3OC)cc2)c(O)c1" in this test? inactive

Also need "COc1ccc(Nc2nc(N)c(C(=O)c3ccco3)s2)cc1" , thanks. inactive

Cited source: ChEMBL document CHEMBL1201862
